Reference source: the METLIN SMRT retention time set (Domingo-Almenara et al. 2019)

assay: gradient 5% acetonitrile 3 min, to 50% in 2 min, to 85% in 15 min, held 3 min, 100 µL/min; details: column: Zorbax Extend-C18 2.1 x 50 mm; eluents: water / acetonitrile, 0.1% formic acid
endpoint.label: RP-LC retention time (s)
# output: bare number, implied unit s

Q: Please list RP-LC retention time recorded for the molecule CC(C)c1nncn1C1CCN(S(=O)(=O)Cc2ccccc2F)CC1
Ans: 688

Q: Please list RP-LC retention time recorded for the molecule COc1ccc(-c2noc(C3CCCN3C(=O)Nc3cccc(Cl)c3)n2)cc1 (stereo not drawn)
Ans: 1020

Q: Please list RP-LC retention time recorded for the molecule COc1ccc(NC(=O)c2sc(N3CCCC3=O)nc2C)cc1Cl
Ans: 809

Q: Please list RP-LC retention time recorded for the molecule Cc1ccc(N2CCC(NC(=O)Nc3cc(F)cc(F)c3)C2=O)cc1C (stereo not drawn)
Ans: 903

Q: Please list RP-LC retention time recorded for the molecule Cc1ccc(-c2cc3c4nnc(SCC(=O)Nc5ccccc5Cl)n4ccn3n2)cc1C
Ans: 1020

Q: Please list RP-LC retention time recorded for the molecule CCc1ccc(CNC(=O)c2c(C)sc3ccn(CC)c(=O)c23)cc1
Ans: 959

Q: Please list RP-LC retention time recorded for the molecule O=c1ccc(-c2cccc(Cl)c2)nn1CCc1nc(-c2ccccc2)no1
Ans: 1030

Q: Please list RP-LC retention time recorded for the molecule O=C(Cn1c(-c2cccs2)cc2cc(Cl)ccc21)NCCN1CCOCC1
Ans: 706

Q: Please list RP-LC retention time recorded for the molecule O=C(NCc1cccs1)c1cc2n(n1)CCCC2
Ans: 753

Q: Please list RP-LC retention time recorded for the molecule COc1ccc(S(=O)(=O)N2CCC(c3noc(-c4ccccc4C)n3)CC2)cc1
Ans: 1150

Q: Please list RP-LC retention time recorded for the molecule Cn1c(=O)n(CC(=O)N2CCCC2)c(=O)c2cnc(-c3ccc(Cl)cc3)nc21
Ans: 924

Q: Please list RP-LC retention time recorded for the molecule Cc1ccccc1-c1nc(-c2ccc3c(c2)oc(=O)n3C(C)C)no1
Ans: 1270

Q: Please list RP-LC retention time recorded for the molecule Cc1sc(C)c(S(=O)(=O)N2CC=C(c3ccccc3)CC2)c1-c1cc(C(F)(F)F)on1
Ans: 1300

Q: Please list RP-LC retention time recorded for the molecule COc1ccc(-c2noc(-c3nn(-c4ccc(Cl)cc4)ccc3=O)n2)cc1
Ans: 877

Q: Please list RP-LC retention time recorded for the molecule COc1ccc(-c2nnc(-c3ccc(Cl)c(S(=O)(=O)N4CCOCC4)c3)o2)cc1OC
Ans: 884

Q: Please list RP-LC retention time recorded for the molecule COc1cccc(CNC(=O)CN2CCN(Cc3ccc(F)cc3Cl)C2=O)c1
Ans: 844

Q: Please list RP-LC retention time recorded for the molecule CC(=O)c1cccc(NC(=O)CN(C)c2nc3c(F)cccc3s2)c1
Ans: 798

Q: Please list RP-LC retention time recorded for the molecule COc1ccc(C(O)CN2CCN(c3ncccn3)CC2)cc1OC (stereo not drawn)
Ans: 566

Q: Please list RP-LC retention time recorded for the molecule CCNC(=O)C1CCCN(C(=O)Nc2ccc(NC(=O)Nc3ccc(C)cc3C)cc2)C1 (stereo not drawn)
Ans: 730

Q: Please list RP-LC retention time recorded for the molecule Cc1nc(N2CCN(c3ccccn3)CC2)nc2c1C(=O)CC(c1ccccc1F)C2 (stereo not drawn)
Ans: 735

Q: Please list RP-LC retention time recorded for the molecule COC(=O)c1ccccc1NC(=O)c1ccc(-n2ccnc2)nn1
Ans: 666

Q: Please list RP-LC retention time recorded for the molecule CC(Cc1cccs1)NC(=O)Cc1ccc(SC(C)C)cc1 (stereo not drawn)
Ans: 969

Q: Please list RP-LC retention time recorded for the molecule COc1cc(NC(=O)c2sc(-c3cn(C)c4ncccc34)nc2C)cc(OC)c1
Ans: 764

Q: Please list RP-LC retention time recorded for the molecule Cc1ccc(C)c(C(=O)N2CCCC(COc3ccc(C(=O)NC(C)C)cc3)C2)c1 (stereo not drawn)
Ans: 916

Q: Please list RP-LC retention time recorded for the molecule COc1ccc(N2CCN(C(=O)C3CCCN(C(=O)c4cc5sccc5n4C)C3)CC2)cc1 (stereo not drawn)
Ans: 821

Q: Please list RP-LC retention time recorded for the molecule Cc1noc(/C=C\c2ccc(S(=O)(=O)NCC3CCCO3)cc2)c1NC(=O)C1CC1 (stereo not drawn)
Ans: 737

Q: Please list RP-LC retention time recorded for the molecule Cc1ccc(-c2csc(-c3cccn3CC(=O)N(C)Cc3ccco3)n2)cc1
Ans: 1170

Q: Please list RP-LC retention time recorded for the molecule CCN1C(=O)C(C)(C(=O)Nc2cc(OC)ccc2OC)Oc2cccnc21 (stereo not drawn)
Ans: 959

Q: Please list RP-LC retention time recorded for the molecule O=C(Nc1ccc(N2CCOCC2)cc1)C1CCCN(c2ncc(-c3ccccc3)cn2)C1 (stereo not drawn)
Ans: 925

Q: Please list RP-LC retention time recorded for the molecule NS(=O)(=O)c1ccc(CCNC(=O)c2nc(Cn3nc(-c4ccc(F)cc4)ccc3=O)no2)cc1
Ans: 733

Q: Please list RP-LC retention time recorded for the molecule COC(=O)c1cccc(C(=O)NC2CCN(C(=O)c3cc(-c4cccs4)[nH]n3)CC2)c1
Ans: 733

Q: Please list RP-LC retention time recorded for the molecule CCOC(=O)c1c(C)oc2nc(C)nc(NCCc3ccc(OC)c(OC)c3)c12
Ans: 1050

Q: Please list RP-LC retention time recorded for the molecule CCC(C)n1c(=O)c2ccccc2n(Cc2nc(-c3cc(OC)cc(OC)c3)no2)c1=O (stereo not drawn)
Ans: 1180

Q: Please list RP-LC retention time recorded for the molecule CCNC(=O)N1CC=C(C(=O)Nc2ccccc2)CC1
Ans: 658

Q: Please list RP-LC retention time recorded for the molecule CCCN(C)c1nccn2c(=O)n(CC(=O)Nc3ccc(F)cc3F)nc12
Ans: 673

Q: Please list RP-LC retention time recorded for the molecule O=C(Nc1ccc2nccnc2c1)c1csc2c1CCCC2
Ans: 804

Q: Please list RP-LC retention time recorded for the molecule Oc1ccc(-c2nc3ccccn3c2Nc2ccc3c(c2)OCCO3)cc1
Ans: 596

Q: Please list RP-LC retention time recorded for the molecule CCN1c2cc(Cl)ccc2C(=O)NC12CCN(C(=O)NCc1cccc(F)c1)CC2
Ans: 856
